biological target: human Claudin-6 (CLDN6) (human) (UniProt P56747); experiment: FACS, 1.5 ug Ab, OVCA429 cells (2nd Ab only 885.77)
READOUT_TYPE: FACS fluorescence

Prompt line: Could you tell me which FACS fluorescence is on file for AB11-chim (antibody, V domains shown) VH: DVQLVESGGGLVQPRGSRKLSCAASGFTFSSFGMHWVRQAPEKGLEWVAYISSDSRTIYYADTVKGRFTISRDNPTNTLFLQMTSLRSEDTAMYYCARDYGRTYEAYWGQGTLVTVSA VL: DIVLTQSPASLAVSLGQRATISCRASKSVSTSGYSYIHWYQQKPGQPPKLLIYLASNLESGVPARFSGSGSGTDFTLNIHPVEEEDAATYYCQHSRELPLTFGAGTKLELK ?
Response line: 2440
